tested on: Candida-Zellen; assay: Antimycotic in-vivo activity (oral) in mouse candidosis; set-up: species or system Mäuse vom Typ SPF-CF1; key: +++++: sehr gute Wirkung = 90 % Ueberlebende am 6.Tag p.i.; ++++: gute Wirkung = 80 % Ueberlebende am 6.Tag p.i.; +++: Wirkung = 60 % Ueberlebende am 6.Tag p.i.; ++: schwache Wirkung = 40 % Ueberlebende am 6.Tag p.i.; +: Spur Wirkung; k.W.: keine Wirkung; settings: mice infected i.v. with 1 - 2 x 10^6 Candida cells; oral 50 - 100 mg/kg one hour before and seven hours after infection; survivors on day 6 p.i.
Property Name: Wirkung

What value of Wirkung has been reported for the following compound? O=C(Cn1cncn1)c1ccc(-c2ccccc2)cc1 [(B), reference compound] k.W.

What value of Wirkung has been reported for the following compound? CCC(C(O)c1ccc(Oc2ccc(Cl)cc2)cc1)n1ccnc1 (stereo not drawn) [Beispiel 70] +

----------
tested on: Candida-Zellen; assay: Antimycotic in-vivo activity (oral) in mouse candidosis; design: species or system Mäuse vom Typ SPF-CF1; key: +++++: sehr gute Wirkung = 90 % Ueberlebende am 6.Tag p.i.; ++++: gute Wirkung = 80 % Ueberlebende am 6.Tag p.i.; +++: Wirkung = 60 % Ueberlebende am 6.Tag p.i.; ++: schwache Wirkung = 40 % Ueberlebende am 6.Tag p.i.; +: Spur Wirkung; k.W.: keine Wirkung; settings: mice infected i.v. with 1 - 2 x 10^6 Candida cells; oral 50 - 100 mg/kg one hour before and seven hours after infection; survivors on day 6 p.i.
Property Name: Wirkung

Here are 4 molecules together with their reported answers.
Candida-Zellen / Wirkung / CC(C(=O)c1ccccc1)n1cncn1 (stereo not shown) [(A), reference compound] : value? k.W.

Candida-Zellen / Wirkung / CC(C(=O)c1ccc(Oc2ccc(Cl)cc2)cc1)n1ccnc1 (stereo not shown) [Beispiel 26] : value? +

Candida-Zellen / Wirkung / OC(Cn1cncn1)c1ccc(-c2ccc(Cl)cc2)cc1 (stereo not shown) [(D), reference compound] : value? k.W.

Candida-Zellen / Wirkung / CC(C(O)c1ccc(Cl)cc1)n1cncn1 (stereo not shown) [(C), reference compound] : value? k.W.

***
Candida-Zellen / Wirkung / CC(n1cncn1)C(O)(Cc1ccc(Cl)cc1)c1ccc(Oc2ccc(Cl)cc2)cc1 (stereo not shown) [Beispiel 45] : value? +

----------
Task for the reader: assign each of the following compounds its reported MIC.
Just the number please, in µg/mL, no unit attached.

Torulopsis glabrata / MIC / CC(C(O)c1ccc(Oc2ccc(Cl)cc2)cc1)n1cncn1 (stereo not drawn) : value? 2

Torulopsis glabrata / MIC / CCCC(n1cncn1)C(C)(O)c1ccc(Oc2ccc(Cl)cc2)cc1 (stereo not drawn) : value? 4

Torulopsis glabrata / MIC / CCC(C(=O)c1ccc(Oc2ccc(Cl)cc2)cc1)n1ccnc1 (stereo not drawn) : value? 8

Torulopsis glabrata / MIC / CC(C(O)c1ccc(Oc2ccc(Cl)cc2Cl)cc1)n1cncn1 (stereo not drawn) : value? 8

Torulopsis glabrata / MIC / CC(C)C(C(O)c1ccc(Oc2ccc(Cl)cc2)cc1)n1ccnc1 (stereo not drawn) : value? 2

Torulopsis glabrata / MIC / COCCC(C(O)c1ccc(Oc2ccc(Cl)cc2)cc1)n1cncn1 (stereo not drawn) : value? 4

Torulopsis glabrata / MIC / CC=CCC(C(O)c1ccc(Oc2ccc(Cl)cc2)cc1)n1cncn1 (stereo not drawn) : value? 2

Torulopsis glabrata / MIC / OC(Cn1cncn1)c1ccc(Oc2ccc(Cl)cc2Cl)cc1 (stereo not drawn) : value? 2

Torulopsis glabrata / MIC / CCCCC(C(O)c1ccc(Oc2ccc(Cl)cc2)cc1)n1ccnc1 (stereo not drawn) : value? 2

Torulopsis glabrata / MIC / CCCC(C(O)c1ccc(Oc2ccccc2)cc1)n1ccnc1 (stereo not drawn) : value? 32

Torulopsis glabrata / MIC / CCCCCCCC(C(O)c1ccc(Oc2ccc(Cl)cc2)cc1)n1cncn1 (stereo not drawn) : value? 16

Torulopsis glabrata / MIC / CCC(C(=O)c1ccc(Oc2ccc(Cl)cc2)cc1)n1cncn1 (stereo not drawn) : value? 64
